Tested on: MC3T3
Test: Cytotoxicity test (MTT), MC3T3
Type: cell-based
Details: 10^−6M, 72 hrs, in comparison with the control group
# key: entry, value: survival rates of the cells
Reply with just the number (in %).

# example entries with known answers
N=C(NO)c1ccc(OCCCCCOc2ccc(-c3nc(-c4ccccc4)sc3CCN3CCOCC3)cc2)cc1    85.9
CN(C)CCc1sc(C2CCCCC2)nc1-c1ccc(OCCCCCOc2ccc(C(=N)NO)cc2)cc1    94.9
CCc1nc(-c2ccc(OCCCCCOc3ccc(C(=N)NO)cc3)cc2)c(CCN2CCOCC2)s1    81.5
Cc1nc(-c2ccc(OCCCCCOc3ccc(C(=N)NO)cc3)cc2)c(CCN2CCOCC2)s1    94.4
N=C(N)c1ccc(OCCCCCOc2ccc(-c3nc(C4CCCCC4)sc3CCN3CCOCC3)cc2)cc1    108.2

input: Fill in the blank: the reported survival rates of the cells of CCN(CC)c1nc(-c2ccc(OCCCCCOc3ccc(C(=N)NO)cc3)cc2)c(CCN2CCOCC2)s1 is ____.
output: 86.8

input: Fill in the blank: the reported survival rates of the cells of Cc1nc(-c2ccc(OCCCCOc3ccc(C(=N)NO)cc3)cc2)c(CCN2CCOCC2)s1 is ____.
output: 101.3

---

# key: entry, value: survival rates of the cells
Tested on: HOS
Assay: Cytotoxicity test (MTT), HOS
Format: cell-based
Conditions: 10^−6M, 72 hrs, in comparison with the control group
Experimental: The cytotoxic effect of the benzamidine derivative of the present invention was evaluated by carrying out the experiment described below. The test substance was diluted in an appropriate solvent at a 10^−2 M concentration. […] Finally, the absorbance of the developed plates was measured at 540 nm. The survival rates of the cells were expressed as % concentration values in comparison with the control group.
Reply with just the number (in %).

# example entries with known answers
CCCN(CCC)CCc1sc(C2CCCCC2)nc1-c1ccc(OCCCCCOc2ccc(C(=N)NO)cc2)cc1    96.2
CN(C)CCc1sc(C2CCCCC2)nc1-c1ccc(OCCCCCOc2ccc(C(=N)NO)cc2)cc1    116.7
N=C(N)c1ccc(OCCCCCOc2ccc(-c3nc(N4CCOCC4)sc3CCN3CCOCC3)cc2)cc1    107.8

input: Fill in the blank: the reported survival rates of the cells of N=C(NO)c1ccc(OCCCCCOc2ccc(-c3nc(C4CCCCC4)sc3CCN3CCSCC3)cc2)cc1 is ____.
output: 81.4

input: Fill in the blank: the reported survival rates of the cells of COCCN(CCOC)c1nc(-c2ccc(OCCCCCOc3ccc(C(=N)NO)cc3)cc2)c(CCN2CCOCC2)s1 is ____.
output: 85.4

input: Fill in the blank: the reported survival rates of the cells of CCc1nc(-c2ccc(OCCCCCOc3ccc(C(=N)NO)cc3)cc2)c(CCN2CCSCC2)s1 is ____.
output: 80.4

input: Fill in the blank: the reported survival rates of the cells of CNc1nc(-c2ccc(OCCCCCOc3ccc(C(=N)NO)cc3)cc2)c(CCNCCN2CCOCC2)s1 is ____.
output: 93.6

---

# key: entry, value: survival rates of the cells
System: HOS
Assay: Cytotoxicity test (MTT), HOS
Type: cell-based
Conditions: 10^−6M, 72 hrs, in comparison with the control group
Reply with just the number (in %).

# example entries with known answers
Cc1nc(-c2ccc(OCCCCOc3ccc(C(=N)NO)cc3)cc2)c(CCN2CCOCC2)s1 [Example 44]    105.6
N=C(NO)c1ccc(OCCCCCOc2ccc(-c3nc(C4CCCCC4)sc3CCNC3CC3)cc2)cc1 [Example 39]    111.0
CCc1nc(-c2ccc(OCCCCCOc3ccc(C(=N)NO)cc3)cc2)c(CCN2CCOCC2)s1 [Example 42]    98.9
CCN(CC)c1nc(-c2ccc(OCCCCCOc3ccc(C(=N)NO)cc3)cc2)c(CCN2CCOCC2)s1 [Example 57]    90.7
N=C(NO)c1ccc(OCCCCCOc2ccc(-c3nc(-c4ccccc4)sc3CCN3CCOCC3)cc2)cc1 [Example 41]    78.8
N=C(NO)c1ccc(OCCCCCOc2ccc(-c3nc(C4CCCCC4)sc3CCNCCN3CCOCC3)cc2)cc1 [Example 35]    115.7

Let us examine a further case.
input: Fill in the blank: the reported survival rates of the cells of CC(C)c1nc(-c2ccc(OCCCCCOc3ccc(C(=N)NO)cc3)cc2)c(CCN(C(=O)c2ccncc2)C2CC2)s1 [Example 67] is ____.
output: 97.5
